- Test system: human nerve extract
- assay_text: Phage display selection on plates coated with human nerve extract (Plated Nerve2), NextGen sequence counts
- Assay type: binding
- protocol_conditions: unique sequence count (relative enrichment); Plated Nerve2 only
- Procedure: Several m13 phage libraries were constructed expressing randomized variants of a parent peptide (QVPWEEPYYVVKKS-SGGL; SEQ ID NO: 576). […] Human Nerve Extracts: Phage libraries were incubated for up to 24 hours at 4° C. in 96 well plates that had been coated with a human nerve extract. […] Colonies were counted to determine titer followed by DNA preparation of pools of phage and NextGen sequencing. […]
value_kind: Count
Just the number, please, no unit attached.

In the examples that follow, each entry is paired with its recorded Count.
- substance: "490 (QFQWETPSHVINDS) [compound 490]"
  test_system: "human nerve extract"
  Count: 51
- substance: "521 (QLPWEGPYYIVKKS) [compound 521]"
  test_system: "human nerve extract"
  Count: 41
- substance: "489 (QFPGEESHYVVRNS) [compound 489]"
  test_system: "human nerve extract"
  Count: 51
- substance: "488 (DVPWPAPYYAVSKY) [compound 488]"
  test_system: "human nerve extract"
  Count: 51
- substance: "487 (DFQSEETRNLAKMP) [compound 487]"
  test_system: "human nerve extract"
  Count: 51

May I ask what Count has been recorded for 540 (HVRFAEPYYAGKTS) [compound 540] ? 37

May I ask what Count has been recorded for 478 (QSPGTNPQNVLIKS) [compound 478] ? 54

May I ask what Count has been recorded for 493 (QISRGDTYYVMNKS) [compound 493] ? 50

May I ask what Count has been recorded for 547 (DVPNDLPSYLVKNS) [compound 547] ? 36

May I ask what Count has been recorded for 512 (QVLEKEPSSNVHKS) [compound 512] ? 44

May I ask what Count has been recorded for 499 (QFPLFTTFYNVEES) [compound 499] ? 47

May I ask what Count has been recorded for 550 (HVPWDDQYYVWRTN) [compound 550] ? 36

* * *

- Test system: human nerve extract
- assay_text: Phage display selection on plates coated with human nerve extract (Plated Nerve2), NextGen sequence counts
- Format: binding
- protocol_conditions: unique sequence count (relative enrichment); Plated Nerve2 only
value_kind: Count
Just the number, please, no unit attached.

In the examples that follow, each entry is paired with its recorded Count.
- substance: "505 (HFRGPEPYKFVENP) [compound 505]"
  meas_value: 45
- substance: "492 (HVAYQEPFVYQKTS) [compound 492]"
  meas_value: 50
- substance: "456 (HFDWEEPYYDASKA) [compound 456]"
  meas_value: 73
- substance: "457 (SYEWEDPYYDLKYS) [compound 457]"
  meas_value: 73
- substance: "482 (QSPFDETAYGLTHS) [compound 482]"
  meas_value: 53
- substance: "544 (QYPWEQRYYFERKS) [compound 544]"
  meas_value: 37
- substance: "465 (QFPWEEPYYVFTNS) [compound 465]"
  meas_value: 62
- substance: "529 (QVPCEQQSCVVKNS) [compound 529]"
  meas_value: 39

May I ask what Count has been recorded for 525 (DFQIVGPSYVGKNS) [compound 525] ? 39

May I ask what Count has been recorded for 508 (QIPSEEPNYILKSS) [compound 508] ? 45

May I ask what Count has been recorded for 467 (QITSDKPYYVVKNS) [compound 467] ? 60
